target: human cholecystokinin-2 receptor (CCK-2R) (Homo sapiens, UniProt P32239); construct: host or cells: 1321-N1 cells (plasma membranes prepared by Evotec AG Hamburg); experiment: In vitro potency on CCK-2R, whole cell functional assay (IP1 accumulation, IP-One HTRF); format: cell-based; settings: 1321-N1 cells stably expressing CCK-2R; IP1 accumulation; highest dose tested 1×10^6 pM; read-out: EC50 (CCK-2R)
Sequence (P32239 whole entry): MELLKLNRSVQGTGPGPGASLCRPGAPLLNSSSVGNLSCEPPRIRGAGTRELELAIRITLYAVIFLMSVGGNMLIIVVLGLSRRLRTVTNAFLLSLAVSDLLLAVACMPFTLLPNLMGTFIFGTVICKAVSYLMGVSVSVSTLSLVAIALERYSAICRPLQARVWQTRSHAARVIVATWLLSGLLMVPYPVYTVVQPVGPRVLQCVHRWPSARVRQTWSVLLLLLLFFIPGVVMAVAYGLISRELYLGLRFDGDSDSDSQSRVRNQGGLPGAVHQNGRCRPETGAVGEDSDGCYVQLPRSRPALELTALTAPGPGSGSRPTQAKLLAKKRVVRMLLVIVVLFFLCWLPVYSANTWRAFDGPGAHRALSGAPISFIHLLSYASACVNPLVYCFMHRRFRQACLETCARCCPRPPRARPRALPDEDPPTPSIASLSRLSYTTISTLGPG
Starred links: 1 amine or outer side, 2 acyl side, 3 side chain; linkers in the order of their positions; H or OH if unused. Non-standard residues stand in square brackets, D forms with d. Residues, ends and D or L forms follow the SMILES beside them. *: point of attachment. Phe(4-CH2SO3H) = N[C@@H](Cc1ccc(CS(=O)(=O)O)cc1)C(=O)O; C20 diacid = O=C(O)CCCCCCCCCCCCCCCCCCC(=O)*; sY = N[C@@H](Cc1ccc(OS(=O)(=O)O)cc1)C(=O)O; γGlu = O=C(O)[C@H](CCC(=O)[*:2])N[*:1]; 1Nal = N[C@@H](Cc1cccc2ccccc12)C(=O)O; NMeF = CN[C@@H](Cc1ccccc1)C(=O)O; dNMeD = CN[C@H](CC(=O)O)C(=O)O; Nle = CCCC[C@H](N)C(=O)O; AEEA = NCCOCCOCC(=O)O
EC50 values, listed per item
test readout: EC50

1) CCCC[C@H](NC(=O)[C@H](Cc1c[nH]c2ccccc12)NC(=O)CNC(=O)[C@H](CC(C)C)NC(=O)[C@H](Cc1ccc(CS(=O)(=O)O)cc1)NC(=O)[C@H](CC(=O)O)NC(=O)COCCOCCNC(=O)COCCOCCNC(=O)CC[C@H](NC(=O)CCCCCCCCCCCCCCCCCCC(=O)O)C(=O)O)C(=O)N(C)[C@H](CC(=O)O)C(=O)N(C)[C@@H](Cc1ccccc1)C(N)=O [Example 35] ({C20 diacid-γGlu-AEEA-AEEA}-D[Phe(4-CH2SO3H)]LGW[Nle][dNMeD][NMeF]-NH2): > 1000 nM
2) CC(C)C[C@H](NC(=O)[C@H](Cc1ccc(OS(=O)(=O)O)cc1)NC(=O)[C@@H](N)CCC(=O)O)C(=O)NCC(=O)N[C@@H](Cc1c[nH]c2ccccc12)C(=O)N[C@@H](CCC(N)=O)C(=O)N(C)[C@H](CC(=O)O)C(=O)N[C@@H](Cc1ccccc1)C(N)=O [Example 85]: > 1000 nM
3) CCCC[C@H](NC(=O)[C@H](Cc1c[nH]c2ccccc12)NC(=O)CNC(=O)[C@H](CC(C)C)NC(=O)[C@H](Cc1ccc(OS(=O)(=O)O)cc1)NC(=O)[C@@H](N)CCC(=O)O)C(=O)N(C)[C@H](CC(=O)O)C(=O)N(C)[C@@H](Cc1ccccc1)C(N)=O [Example 77] (H-E[sY]LGW[Nle][dNMeD][NMeF]-NH2): 920 nM
4) CC(C)C[C@H](NC(=O)[C@H](Cc1ccc(OS(=O)(=O)O)cc1)NC(=O)[C@H](CCC(=O)O)NC(=O)COCCOCCNC(=O)COCCOCCNC(=O)CC[C@H](NC(=O)CCCCCCCCCCCCCCCCC(=O)O)C(=O)O)C(=O)NCC(=O)N[C@@H](Cc1c[nH]c2ccccc12)C(=O)N[C@@H](CCC(N)=O)C(=O)N(C)[C@H](CC(=O)O)C(=O)N[C@@H](Cc1ccccc1)C(N)=O [Example 41]: > 1000 nM
5) CCCC[C@H](NC(=O)[C@H](Cc1c[nH]c2ccccc12)NC(=O)CNC(=O)[C@H](CC(C)C)NC(=O)[C@H](Cc1ccc(OS(=O)(=O)O)cc1)NC(=O)[C@H](CC(=O)O)NC(=O)CCCCCCCCCCCCCCCCC(=O)O)C(=O)N(C)[C@H](CC(=O)O)C(=O)N(C)[C@@H](Cc1ccccc1)C(N)=O [Example 38]: > 1000 nM
6) CCCC[C@H](NC(=O)[C@H](Cc1ccc(OS(=O)(=O)O)cc1)NC(=O)[C@@H](N)CC(=O)O)C(=O)NCC(=O)N[C@@H](Cc1c[nH]c2ccccc12)C(=O)N[C@@H](CCCC)C(=O)N(C)[C@H](CC(=O)O)C(=O)N[C@@H](Cc1cccc2ccccc12)C(N)=O [Example 54] (H-D[sY][Nle]GW[Nle][dNMeD][1Nal]-NH2): 290 nM

###

molecular target: human cholecystokinin-1 receptor (CCK-1R) (Homo sapiens); construct: host or cells: 1321-N1 cells; assay: In vitro potency on CCK-1R, whole cell functional assay (IP1 accumulation, IP-One HTRF); type: cell-based
Sequence (P32238 whole entry): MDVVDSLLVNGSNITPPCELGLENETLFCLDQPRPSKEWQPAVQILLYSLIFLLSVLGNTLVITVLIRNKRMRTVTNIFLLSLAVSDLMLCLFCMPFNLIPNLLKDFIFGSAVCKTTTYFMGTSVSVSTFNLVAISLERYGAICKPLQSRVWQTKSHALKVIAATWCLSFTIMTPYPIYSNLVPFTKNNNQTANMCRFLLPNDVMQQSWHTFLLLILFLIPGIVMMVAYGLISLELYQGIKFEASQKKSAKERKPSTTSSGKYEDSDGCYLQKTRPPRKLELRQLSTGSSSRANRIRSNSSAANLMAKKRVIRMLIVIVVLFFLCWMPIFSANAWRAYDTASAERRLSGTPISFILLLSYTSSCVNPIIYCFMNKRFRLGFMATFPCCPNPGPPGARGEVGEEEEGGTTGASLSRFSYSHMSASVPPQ
Starred links: 1 amine or outer side, 2 acyl side, 3 side chain; linkers in the order of their positions; H or OH if unused. Non-standard residues stand in square brackets, D forms with d. Residues, ends and D or L forms follow the SMILES beside them. *: point of attachment. Phe(4-CH2SO3H) = N[C@@H](Cc1ccc(CS(=O)(=O)O)cc1)C(=O)O; sY = N[C@@H](Cc1ccc(OS(=O)(=O)O)cc1)C(=O)O; C18 diacid = O=C(O)CCCCCCCCCCCCCCCCC(=O)*; γGlu = O=C(O)[C@H](CCC(=O)[*:2])N[*:1]; NMeF = CN[C@@H](Cc1ccccc1)C(=O)O; dNMeD = CN[C@H](CC(=O)O)C(=O)O; Nle = CCCC[C@H](N)C(=O)O; AEEA = NCCOCCOCC(=O)O
EC50 values, listed per item
test readout: EC50 (nM)

1. CC(C)C[C@H](NC(=O)[C@H](Cc1ccc(OS(=O)(=O)O)cc1)NC(=O)[C@@H](N)CC(=O)O)C(=O)NCC(=O)N[C@@H](Cc1c[nH]c2ccccc12)C(=O)N[C@@H](CC(C)C)C(=O)N(C)[C@H](CC(=O)O)C(=O)N(C)[C@@H](Cc1ccccc1)C(N)=O: 0.25
2. CC(C)C[C@H](NC(=O)[C@H](Cc1ccc(OS(=O)(=O)O)cc1)NC(=O)[C@H](CC(=O)O)NC(=O)COCCOCCNC(=O)COCCOCCNC(=O)CC[C@H](NC(=O)CCCCCCCCCCCCCCCCC(=O)O)C(=O)O)C(=O)NCC(=O)N[C@@H](Cc1c[nH]c2ccccc12)C(=O)N[C@H](C(=O)N(C)[C@H](CC(=O)O)C(=O)N(C)[C@@H](Cc1ccccc1)C(N)=O)C(C)C [Example 14] ({C18 diacid-γGlu-AEEA-AEEA}-D[sY]LGWV[dNMeD][NMeF]-NH2): 0.14
3. CCCC[C@H](NC(=O)[C@H](Cc1ccc(CS(=O)(=O)O)cc1)NC(=O)[C@H](CC(=O)O)NC(=O)COCCOCCNC(=O)COCCOCCNC(=O)CC[C@H](NC(=O)CCCCCCCCCCCCCCCCC(=O)O)C(=O)O)C(=O)NCC(=O)N[C@@H](Cc1c[nH]c2ccccc12)C(=O)N[C@@H](CCCC)C(=O)N(C)[C@H](CC(=O)O)C(=O)N(C)[C@@H](Cc1ccccc1)C(N)=O [Example 3] ({C18 diacid-γGlu-AEEA-AEEA}-D[Phe(4-CH2SO3H)][Nle]GW[Nle][dNMeD][NMeF]-NH2): 0.31
4. CC(C)C[C@H](NC(=O)[C@H](Cc1ccc(OS(=O)(=O)O)cc1)NC(=O)[C@@H](N)CC(=O)O)C(=O)NCC(=O)N[C@@H](Cc1c[nH]c2ccccc12)C(=O)N[C@@H](C)C(=O)N(C)[C@H](CC(=O)O)C(=O)N(C)[C@@H](Cc1ccccc1)C(N)=O [Example 84] (H-D[sY]LGWA[dNMeD][NMeF]-NH2): 0.22

###

biological target: human cholecystokinin-1 receptor (CCK-1R) (Homo sapiens); construct: host or cells: 1321-N1 cells; experiment: In vitro potency on CCK-1R, whole cell functional assay (IP1 accumulation, IP-One HTRF); format: cell-based; conditions: 1321-N1 cells stably expressing CCK-1R; IP1 accumulation; average of min. three replicates; read-out: EC50 (CCK-1R)
Starred links: 1 amine or outer side, 2 acyl side, 3 side chain; linkers in the order of their positions; H or OH if unused. Non-standard residues stand in square brackets, D forms with d. Residues, ends and D or L forms follow the SMILES beside them. *: point of attachment. sY = N[C@@H](Cc1ccc(OS(=O)(=O)O)cc1)C(=O)O; C18 diacid = O=C(O)CCCCCCCCCCCCCCCCC(=O)*; γGlu = O=C(O)[C@H](CCC(=O)[*:2])N[*:1]; NMeF = CN[C@@H](Cc1ccccc1)C(=O)O; dNMeD = CN[C@H](CC(=O)O)C(=O)O; Nle = CCCC[C@H](N)C(=O)O; AEEA = NCCOCCOCC(=O)O
test readout: EC50 (nM)

1) CCCC[C@H](NC(=O)[C@H](Cc1c[nH]c2ccccc12)NC(=O)CNC(=O)[C@H](C)NC(=O)[C@H](Cc1ccc(OS(=O)(=O)O)cc1)NC(=O)[C@H](CC(=O)O)NC(=O)COCCOCCNC(=O)COCCOCCNC(=O)CC[C@H](NC(=O)CCCCCCCCCCCCCCCCC(=O)O)C(=O)O)C(=O)N(C)[C@H](CC(=O)O)C(=O)N(C)[C@@H](Cc1ccccc1)C(N)=O [Example 46] ({C18 diacid-γGlu-AEEA-AEEA}-D[sY]AGW[Nle][dNMeD][NMeF]-NH2): 0.22
